Molecular target: T1, GST–PHD1 D292N (KDM5A S287–K347) (UniProt P29375 287-347, D292N)
T1 sequence (looked up): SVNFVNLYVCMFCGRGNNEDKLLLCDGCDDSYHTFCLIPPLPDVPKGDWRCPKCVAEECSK
Test: fluorescence polarisation
No end group written: not given here.

Binder: ARTK(Me)QTARKS (peptide, UniProt P68431 2-11, looked up) [histone H3K4me1 10mer peptide]
binding result: binds

Binder: ARTK(Me2)QTARKS (peptide, UniProt P68431 2-11, looked up) [histone H3K4me2 10mer peptide]
binding result: binds

Binder: ARTKQTARKS (peptide, UniProt P68431 2-11, looked up) [histone H3 10mer peptide (A1–S10), unmodified]
binding result: binds

Binder: ARTK(Me3)QTARKS (peptide, UniProt P68431 2-11, looked up) [histone H3K4me3 10mer peptide]
binding result: binds

Ref: paper PMC8380758
